- Test system: TPA-induced mouse ear edema
- Method summary: Effect on TPA-induced mouse ear edema test
- Format: in vivo, male ICR mice
- Condition parameters: inhibition of ear edema (ear weight difference) vs control; TPA 1 μg/20 μl, topical; drug dissolved in TPA solution (100 μg/20 ml); 5 hours
Property: Inhibition (%)
Write it as a number; the unit % goes unstated.

See these solved cases before continuing.
Could you share what Inhibition (%) was measured for CN(C)CCC(c1ccc(Cl)cc1)c1ccc(O)c(N(C)C)c1 (centres unmarked) [Compound 6] , tested on TPA-induced mouse ear edema?
62.7

Could you share what Inhibition (%) was measured for Cc1ccc(O)c(NCCCN2CCN(C(c3ccc(F)cc3)c3ccc(F)cc3)CC2)c1 [Compound 32] , tested on TPA-induced mouse ear edema?
64.1

Could you share what Inhibition (%) was measured for Cc1ccc(O)c(N(CCCN2CCN(C(c3ccccc3)c3ccc(Cl)cc3)CC2)C(C)C)c1 (centres unmarked) [Compound 21] , tested on TPA-induced mouse ear edema?
44.4

New cases:
Could you share what Inhibition (%) was measured for CN(C)CC=C(c1ccc(Cl)cc1)c1ccc(O)c(N(C)C)c1 [Compound 5] , tested on TPA-induced mouse ear edema?
75.0

Could you share what Inhibition (%) was measured for Cc1ccc(O)c(NCCCN2CCCN(C(c3ccccc3)c3ccc(Cl)cc3)CC2)c1 (centres unmarked) [Compound 17] , tested on TPA-induced mouse ear edema?
87.0

###

- Tested on: lipoperoxide production in rat cerebral tissues
- Method summary: Inhibition of lipoperoxide production in rat cerebral tissues (TBA reaction in cerebral tissue homogenate)
- Assay type: biochemical
- Condition parameters: 37° C., 120 minutes, test concentrations 10, 1, 0.1, 0.01, 0.001 μg/ml, absorbance 535 nm, least square method
Listed below: IC50 values for each entry.
Write it as a number; the unit µg/mL goes unstated.

Query: IC50; subject: "Cc1ccc(O)c(NCCCN2CCC(OC(c3ccccc3)c3ccccc3)CC2)c1"
0.036

New cases:
Query: IC50; subject: Cc1cc(NCCCN2CCN(C(c3ccccc3)c3ccc(Cl)cc3)CC2)c(O)c(C(C)(C)C)c1 (stereo not shown)
0.066

Query: IC50; subject: CN(C)CCOC(c1ccc(Cl)cc1)c1ccc(O)c(N(C)C)c1 (stereo not shown)
0.39

Query: IC50; subject: CN(C)CCC(c1ccc(Cl)cc1)c1ccc(O)c(N(C)C)c1 (stereo not shown)
0.31

###

Listed below: Inhibition (%) values for each entry.
- Test system: TPA-induced mouse ear edema
- Method summary: Effect on TPA-induced mouse ear edema test
- Assay type: in vivo, male ICR mice
- Condition parameters: inhibition of ear edema (ear weight difference) vs control; TPA 1 μg/20 μl, topical; drug dissolved in TPA solution (100 μg/20 ml); 5 hours
- Method: Effect on TPA-induced mouse ear edema test Male ICR mice weighing about 20 g were etherized, and fixed at the dorsal position. […] The weight difference between the both ears was taken as an index of the degree of edema, and the percent inhibition was calculated from the comparison with the control. […]
Write it as a number; the unit % goes unstated.

See these solved cases before continuing.
Query: Inhibition (%); subject: Cc1ccc(O)c(NCCCN2CCN(C(c3ccccc3)c3ccccc3)CC2)c1 [Compound 14]
77.8

Query: Inhibition (%); subject: Cc1ccc(O)c(NCCCN2CCN(C(c3ccccc3)c3ccc(Cl)cc3)CC2)c1 (stereo not shown) [Compound 15]
86.7

Query: Inhibition (%); subject: Cc1ccc(O)c(N(CCCN2CCC(C(O)(c3ccccc3)c3ccccc3)CC2)C(C)C)c1 [Compound 23]
39.2

--- query ---
Query: Inhibition (%); subject: Cc1ccc(O)c(N(C)CCCN2CCN(C(c3ccccc3)c3ccccc3)CC2)c1 [Compound 16]
50.9

###

- System: TPA-induced mouse ear edema
- Method summary: Effect on TPA-induced mouse ear edema test
- Assay type: in vivo, male ICR mice
- Condition parameters: inhibition of ear edema (ear weight difference) vs control; TPA 1 μg/20 μl, topical; drug dissolved in TPA solution (100 μg/20 ml); 5 hours
- Protocol: Effect on TPA-induced mouse ear edema test Male ICR mice weighing about 20 g were etherized, and fixed at the dorsal position. […] The weight difference between the both ears was taken as an index of the degree of edema, and the percent inhibition was calculated from the comparison with the control. […]
Listed below: Inhibition (%) values for each entry.
Write it as a number; the unit % goes unstated.

See these solved cases before continuing.
Query: Inhibition (%); subject: CN(C)c1cc(CN2CCN(C(c3ccccc3)c3ccc(Cl)cc3)CC2)ccc1O (centres unmarked)
54.6

Query: Inhibition (%); subject: Cc1ccc(O)c(NCCCN2CCC(C(O)(c3ccccc3)c3ccc(Cl)cc3)CC2)c1 (centres unmarked)
97.5

Query: Inhibition (%); subject: "CN(C)CCN(Cc1ccc(O)c(N(C)C)c1)c1ccccc1"
75.0

New cases:
Query: Inhibition (%); subject: "Cc1ccc(O)c(NCCCN2CCC(C(O)(c3ccccc3)c3ccccc3)CC2)c1"
89.0

Query: Inhibition (%); subject: Cc1ccc(O)c(NC(C)CN2c3ccccc3Sc3ccccc32)c1 (centres unmarked)
74.7

Query: Inhibition (%); subject: Cc1cc(NCCCN2CCN(C(c3ccccc3)c3ccc(Cl)cc3)CC2)c(O)c(C(C)(C)C)c1 (centres unmarked)
63.8

Query: Inhibition (%); subject: CN1CCN(C(c2ccc(Cl)cc2)c2ccc(O)c(N(C)C)c2)CC1 (centres unmarked)
71.1

Query: Inhibition (%); subject: "Cc1ccc(O)c(NCCCN2CCC(OC(c3ccccc3)c3ccccc3)CC2)c1"
85.5

###

- Test system: lipoperoxide production in rat cerebral tissues
- Method summary: Inhibition of lipoperoxide production in rat cerebral tissues (TBA reaction in cerebral tissue homogenate)
- Format: biochemical
- Condition parameters: 37° C., 120 minutes, test concentrations 10, 1, 0.1, 0.01, 0.001 μg/ml, absorbance 535 nm, least square method
Flag rule - IC50 less than 0.2 µg/mL flags rule met; the remaining entries get rule not met.

Hello, is IC50 of the following molecule strictly smaller than 0.2 µg/mL? "Cc1ccc(O)c(NCCCN2CCN(C(c3ccccc3)c3ccccc3)CC2)c1"
rule met

Hello, is IC50 of the following molecule strictly smaller than 0.2 µg/mL? "Cc1ccc(O)c(N(C)CCCN2CCN(C(c3ccccc3)c3ccccc3)CC2)c1"
rule not met

Hello, is IC50 of the following molecule strictly smaller than 0.2 µg/mL? "Cc1ccc(O)c(N(CCCN2CCC(C(O)(c3ccccc3)c3ccccc3)CC2)C(C)C)c1"
rule not met

Hello, is IC50 of the following molecule strictly smaller than 0.2 µg/mL? Cc1ccc(O)c(NCCCN2CCN(C(c3ccccc3)c3ccc(Cl)cc3)CC2)c1 (stereo not drawn)
rule met

Hello, is IC50 of the following molecule strictly smaller than 0.2 µg/mL? Cc1ccc(O)c(N(CCCN2CCN(C(c3ccccc3)c3ccc(Cl)cc3)CC2)C(C)C)c1 (stereo not drawn)
rule not met

Hello, is IC50 of the following molecule strictly smaller than 0.2 µg/mL? "Cc1ccc(O)c(N(C)CCOC(c2ccccc2)c2ccccc2)c1"
rule not met

Hello, is IC50 of the following molecule strictly smaller than 0.2 µg/mL? CN(C)c1cc(CN2CCN(C(c3ccccc3)c3ccc(Cl)cc3)CC2)ccc1O (stereo not drawn)
rule met

###

- System: lipoperoxide production in rat cerebral tissues
- Method summary: Inhibition of lipoperoxide production in rat cerebral tissues (TBA reaction in cerebral tissue homogenate)
- Format: biochemical
- Condition parameters: 37° C., 120 minutes, test concentrations 10, 1, 0.1, 0.01, 0.001 μg/ml, absorbance 535 nm, least square method
Listed below: IC50 values for each entry.
Write it as a number; the unit µg/mL goes unstated.

Query: IC50; subject: "CN(C)CC=C(c1ccc(Cl)cc1)c1ccc(O)c(N(C)C)c1"
0.20

Query: IC50; subject: Cc1ccc(O)c(NC(C)CN2c3ccccc3Sc3ccccc32)c1 (centres unmarked)
0.086

Query: IC50; subject: "Cc1ccc(O)c(NCCCN2CCN(C(c3ccc(F)cc3)c3ccc(F)cc3)CC2)c1"
0.10

Query: IC50; subject: Cc1ccc(O)c(NCCCN2CCCN(C(c3ccccc3)c3ccc(Cl)cc3)CC2)c1 (centres unmarked)
0.013

--- query ---
Query: IC50; subject: "Cc1ccc(O)c(NCCCN2CCC(C(O)(c3ccccc3)c3ccccc3)CC2)c1"
0.029
